- tgt: T1, CRBN, Q96SW2
- T1 chain: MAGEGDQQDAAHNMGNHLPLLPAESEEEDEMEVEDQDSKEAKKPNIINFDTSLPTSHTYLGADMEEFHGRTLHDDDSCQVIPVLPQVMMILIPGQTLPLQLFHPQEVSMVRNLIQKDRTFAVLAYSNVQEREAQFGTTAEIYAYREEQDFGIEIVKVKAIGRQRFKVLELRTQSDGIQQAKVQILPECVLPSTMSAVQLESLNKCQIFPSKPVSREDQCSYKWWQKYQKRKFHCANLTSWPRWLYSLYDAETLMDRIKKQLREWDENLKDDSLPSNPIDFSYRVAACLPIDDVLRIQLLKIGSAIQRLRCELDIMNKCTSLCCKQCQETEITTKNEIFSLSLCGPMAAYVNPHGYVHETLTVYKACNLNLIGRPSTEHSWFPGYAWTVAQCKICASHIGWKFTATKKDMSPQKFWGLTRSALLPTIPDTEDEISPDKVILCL
- protocol-notes: log2 fold change of degron read counts, EGFP-low vs EGFP+ sorted cells (limma voom), compound-induced degradation; higher = more compound-induced degradation of the degron-EGFP fusion; degrons are variants of IKZF1/3 zinc finger 2; compound dose not given here;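 further: pooled lentiviral library of zinc finger degron-EGFP fusions in mCherry-positive Jurkat cells, FACS-sorted after compound exposure, with degron abundance counted by next-generation sequencing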
- conditions: Jurkat; 18 h; compound: compound 33 (diphenyl IMiD analogue)
In all, about 8,300 sequences were measured (“log2 fold change of degron read counts, EGFP-low vs EGFP+ sorted cells (limma voom), compound-induced degradation”: median about -1.1, highest 2% from about 3.2 on). Only a selection was taken, and the highest values are over-represented in it overall.
Threshold rule: log2 fold change of degron read counts greater than or equal to 0.4 is true (1); below that, false (0).

Observe how each entry below is paired with its result.
FCCDICGARFTQKGNLLRHIKL [46F_47C_49D_50I_52G_53A_54R_55F_67L_, Q9UKT9]; false (0)
FNCEQCGAQFTQKGNLLRHIKL [46F_47N_49E_50Q_52G_53A_54Q_55F_67L_, Q9UKT9]; false (0)
FWCDICGARFTQKGNLLRHIKL [46F_47W_49D_50I_52G_53A_54R_55F_67L_, Q9UKT9]; true (1)
FYCDICGARFTQKGNLLRHIKL [46F_47Y_49D_50I_52G_53A_54R_55F_67L_, Q9UKT9]; true (1)
FVCDICGARFTQKGNLLRHIKL [46F_47V_49D_50I_52G_53A_54R_55F_67L_, Q9UKT9]; false (0)

Can LLCEICGFFCTQKGNLLRHIKL [46L_47L_49E_50I_52G_53F_54F_55C_67L_, Q9UKT9] be said to have log2 fold change of degron read counts at or above 0.4?
false (0)

Can FFCDQCGANFTQKGNLLRHIKL [46F_47F_49D_50Q_52G_53A_54N_55F_67L_, Q9UKT9] be said to have log2 fold change of degron read counts at or above 0.4?
false (0)
